Ref: ChEMBL document CHEMBL3991601

Please consider the recorded Kd for ADP/ATP translocase 3 (Homo sapiens) in what follows.
The source made the active and inactive calls.

[ask] Look at this compound and give its reported Kd. CNC(=O)c1cc(Oc2ccc(NC(=O)Nc3ccc(Cl)c(C(F)(F)F)c3)c(F)c2)ccn1
[reply] > 30 µM (inactive)

[ask] Look at this compound and give its reported Kd. Nc1nc(N)c2nc(-c3cccc(O)c3)c(-c3cccc(O)c3)nc2n1
[reply] > 30 µM (inactive)

[ask] Look at this compound and give its reported Kd. CN1CCC(COc2cnc(-c3cccc(Cn4nc(-c5cccc(C#N)c5)ccc4=O)c3)nc2)CC1
[reply] > 30 µM (inactive)

[ask] Look at this compound and give its reported Kd. COc1cc(OC)c(/C=C/S(=O)(=O)Cc2ccc(OC)c(NCC(=O)O)c2)c(OC)c1
[reply] > 30 µM (inactive)

[ask] Look at this compound and give its reported Kd. CCN1CCN(Cc2ccc(-c3cc4c(N[C@H](C)c5ccccc5)ncnc4[nH]3)cc2)CC1
[reply] > 30 µM (inactive)

[ask] Look at this compound and give its reported Kd. C[C@@H]1CN(Cc2ccc(F)cc2)[C@@H](C)CN1C(=O)c1cc2c(C(=O)C(=O)N(C)C)cn(C)c2cc1Cl
[reply] > 30 µM (inactive)

[ask] Look at this compound and give its reported Kd. Cc1ccc(NC(=O)c2ccc(CN3CC[C@H](N(C)C)C3)c(C(F)(F)F)c2)cc1Nc1nccc(-c2cncnc2)n1
[reply] > 30 µM (inactive)

[ask] Look at this compound and give its reported Kd. CNC(=O)c1ccc(C)c(-n2c(C)cc(OCc3ccc(F)cc3F)c(Br)c2=O)c1
[reply] > 30 µM (inactive)

[ask] Look at this compound and give its reported Kd. Cn1ncc(Cl)c1-c1cc(C(=O)N[C@H](CN)Cc2cccc(F)c2)sc1Cl
[reply] > 30 µM (inactive)

[ask] Look at this compound and give its reported Kd. CCn1c(-c2nonc2N)nc2c(C#CC(C)(C)O)ncc(OC[C@H]3CCCNC3)c21
[reply] > 30 µM (inactive)

[ask] Look at this compound and give its reported Kd. C[C@@H](c1ccc2nccn2c1)n1nnc2ncc(-c3cnn(C)c3)nc21
[reply] > 30 µM (inactive)

* * *

# Target Under Test: Calcium/calmodulin-dependent protein kinase kinase 2 (Homo sapiens, UniProt Q96RR4); further: in the data inactive means no Kd found up to 30 µM
# Sequence (Q96RR4 whole entry): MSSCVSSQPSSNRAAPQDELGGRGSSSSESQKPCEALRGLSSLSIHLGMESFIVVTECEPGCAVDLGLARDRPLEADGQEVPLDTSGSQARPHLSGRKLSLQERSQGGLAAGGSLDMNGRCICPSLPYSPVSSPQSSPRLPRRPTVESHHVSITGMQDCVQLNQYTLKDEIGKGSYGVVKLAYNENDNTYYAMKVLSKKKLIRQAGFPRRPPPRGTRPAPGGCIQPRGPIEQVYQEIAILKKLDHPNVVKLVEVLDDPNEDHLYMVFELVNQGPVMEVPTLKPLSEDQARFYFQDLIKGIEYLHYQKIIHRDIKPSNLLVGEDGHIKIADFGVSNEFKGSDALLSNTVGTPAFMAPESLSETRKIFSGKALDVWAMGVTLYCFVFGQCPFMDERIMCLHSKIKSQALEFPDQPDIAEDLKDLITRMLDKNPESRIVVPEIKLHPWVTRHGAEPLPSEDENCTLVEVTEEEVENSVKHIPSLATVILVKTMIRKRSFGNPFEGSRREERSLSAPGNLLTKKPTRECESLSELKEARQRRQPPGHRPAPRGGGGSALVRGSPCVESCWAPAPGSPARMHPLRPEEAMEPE
Activity calls are given as the source filed them.
I would appreciate it if you answered using one of these outcomes: active, inactive

[ask] Per the records of this test, what outcome belongs to CC(=O)Nc1cccc(-n2c(=O)n(C3CC3)c(=O)c3c(Nc4ccc(I)cc4F)n(C)c(=O)c(C)c32)c1 [TRAMETINIB] ?
[reply] inactive

[ask] Per the records of this test, what outcome belongs to Cn1cc(-c2ccc3nnc(C(F)(F)c4ccc5ncccc5c4)n3n2)cn1 [JNJ-38877605] ?
[reply] inactive

[ask] Per the records of this test, what outcome belongs to Cc1nc(N)sc1-c1ccnc(Nc2ccc(N3CCOCC3)cc2)n1 [CYC-116] ?
[reply] active

[ask] Per the records of this test, what outcome belongs to COc1cc(N2CCC(N3CCN(C)CC3)CC2)ccc1Nc1ncnc(Nc2ccccc2S(=O)(=O)C(C)C)n1 [ASP-3026] ?
[reply] active

[ask] Per the records of this test, what outcome belongs to O=C(O)[C@]1(Cc2cccc(Nc3nccs3)n2)CC[C@@H](Oc2cccc(Cl)c2F)CC1 [MK-5108] ?
[reply] inactive

[ask] Per the records of this test, what outcome belongs to COCCNCc1ccc(-c2cc3nccc(Oc4ccc(NC(=S)NC(=O)Cc5ccc(F)cc5)cc4F)c3s2)nc1 [GLESATINIB] ?
[reply] inactive

[ask] Per the records of this test, what outcome belongs to COc1cc(CCc2cc(NC(=O)c3ccc(N4C[C@@H](C)N[C@@H](C)C4)cc3)n[nH]2)cc(OC)c1 [AZD-4547] ?
[reply] inactive

[ask] Per the records of this test, what outcome belongs to C=CC(=O)N1CCC(Oc2cc3c(Nc4ccc(Cl)c(Cl)c4F)ncnc3cc2OC)CC1 [POZIOTINIB] ?
[reply] inactive

[ask] Per the records of this test, what outcome belongs to O=c1sn(-c2cccc3ccccc23)c(=O)n1Cc1ccccc1 [TIDEGLUSIB] ?
[reply] inactive

[ask] Per the records of this test, what outcome belongs to CN1CCC(COc2cnc(-c3cccc(Cn4nc(-c5cccc(C#N)c5)ccc4=O)c3)nc2)CC1 [TEPOTINIB] ?
[reply] inactive

[ask] Per the records of this test, what outcome belongs to CNC(=O)c1cc(Oc2ccc(NC(=O)Nc3ccc(Cl)c(C(F)(F)F)c3)c(F)c2)ccn1 [REGORAFENIB] ?
[reply] inactive

[ask] Per the records of this test, what outcome belongs to O=C(Nc1ccc(-c2ccnc(Nc3ccc(N4CCOCC4)cc3)n2)cc1)C1CCCN1 (configuration not stated) [XL-019] ?
[reply] inactive

[ask] Per the records of this test, what outcome belongs to C1=C/COCc2cc(ccc2OCCN2CCCC2)Nc2nccc(n2)-c2cccc(c2)COC/1 [PACRITINIB] ?
[reply] active

[ask] Per the records of this test, what outcome belongs to OCCn1cc(-c2cnc3nnn(Cc4ccc5ncccc5c4)c3n2)cn1 [PF-04217903] ?
[reply] inactive

[ask] Per the records of this test, what outcome belongs to CCCS(=O)(=O)Nc1ccc(F)c(C(=O)c2c[nH]c3ncc(-c4ccc(Cl)cc4)cc23)c1F [VEMURAFENIB] ?
[reply] inactive

[ask] Per the records of this test, what outcome belongs to Cc1ccc(S(=O)(=O)Nc2nc3ccccc3nc2Nc2ccc3nsnc3c2)cc1 ?
[reply] inactive

[ask] Per the records of this test, what outcome belongs to Cc1cc(Nc2cc(N3CCN(C)CC3)nc(/C=C/c3ccccc3)n2)n[nH]1 [ENMD-2076] ?
[reply] inactive

* * *

# Target Under Test: UniProtKB P36888
# Sequence (P36888 whole entry): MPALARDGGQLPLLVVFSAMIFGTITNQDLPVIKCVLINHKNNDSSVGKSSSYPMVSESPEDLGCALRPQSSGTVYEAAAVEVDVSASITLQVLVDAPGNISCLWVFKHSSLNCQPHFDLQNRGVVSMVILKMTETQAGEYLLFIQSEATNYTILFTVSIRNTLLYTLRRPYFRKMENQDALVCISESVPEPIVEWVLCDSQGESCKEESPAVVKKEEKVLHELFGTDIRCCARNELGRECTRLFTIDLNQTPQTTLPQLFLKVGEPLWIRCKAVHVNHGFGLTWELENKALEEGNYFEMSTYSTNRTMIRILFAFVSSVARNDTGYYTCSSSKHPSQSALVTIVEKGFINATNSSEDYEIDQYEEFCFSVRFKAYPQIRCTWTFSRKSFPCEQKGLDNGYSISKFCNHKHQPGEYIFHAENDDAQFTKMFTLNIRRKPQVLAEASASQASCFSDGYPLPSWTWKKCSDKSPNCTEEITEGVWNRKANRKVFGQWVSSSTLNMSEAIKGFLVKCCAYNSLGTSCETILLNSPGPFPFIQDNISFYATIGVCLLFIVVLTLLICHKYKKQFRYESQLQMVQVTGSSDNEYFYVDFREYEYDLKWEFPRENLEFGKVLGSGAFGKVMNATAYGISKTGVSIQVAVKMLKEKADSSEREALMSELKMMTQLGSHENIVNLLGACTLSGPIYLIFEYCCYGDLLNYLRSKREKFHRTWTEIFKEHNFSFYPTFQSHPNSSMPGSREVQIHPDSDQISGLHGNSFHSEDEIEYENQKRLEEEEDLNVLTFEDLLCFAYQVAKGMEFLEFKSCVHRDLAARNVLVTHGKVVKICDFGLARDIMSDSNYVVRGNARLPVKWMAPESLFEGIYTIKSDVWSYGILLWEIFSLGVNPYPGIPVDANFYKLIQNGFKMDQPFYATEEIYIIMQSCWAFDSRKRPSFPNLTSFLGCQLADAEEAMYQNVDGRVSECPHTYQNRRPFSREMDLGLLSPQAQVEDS
Activity calls are given as the source filed them.
I would appreciate it if you answered using one of these outcomes: active, inactive

[ask] Per the records of this test, what outcome belongs to CCN1CCN(Cc2ccc(-c3cc4c(N[C@H](C)c5ccccc5)ncnc4[nH]3)cc2)CC1 [AEE-788] ?
[reply] inactive

[ask] Per the records of this test, what outcome belongs to CN(C)C(=O)c1cc2cnc(Nc3ccc(N4CCNCC4)cn3)nc2n1C1CCCC1 [RIBOCICLIB] ?
[reply] inactive

[ask] Per the records of this test, what outcome belongs to Cn1cc(-c2ccc3nnc(C(F)(F)c4ccc5ncccc5c4)n3n2)cn1 [JNJ-38877605] ?
[reply] inactive

[ask] Per the records of this test, what outcome belongs to COC(=O)[C@@]1(O)C[C@H]2O[C@]1(C)n1c3ccccc3c3c4c(c5c6ccccc6n2c5c31)C(=O)NC4 [K-252A] ?
[reply] active

[ask] Per the records of this test, what outcome belongs to CN1CCC(COc2cnc(-c3cccc(Cn4nc(-c5cccc(C#N)c5)ccc4=O)c3)nc2)CC1 [TEPOTINIB] ?
[reply] inactive

[ask] Per the records of this test, what outcome belongs to CC(C)Nc1cc(-c2c[nH]c(C(=O)N[C@H](CO)c3cccc(Cl)c3)c2)c(Cl)cn1 [ULIXERTINIB] ?
[reply] inactive

[ask] Per the records of this test, what outcome belongs to CCn1c(=O)c(-c2cc[nH]n2)cc2c(C)nc(N)nc21 [VOXTALISIB] ?
[reply] inactive

[ask] Per the records of this test, what outcome belongs to O=C(Nc1ccc(-c2ccnc(Nc3ccc(N4CCOCC4)cc3)n2)cc1)C1CCCN1 (stereo not drawn) [XL-019] ?
[reply] active
